# Target or test system: mouse ACVR2A (mouse, UniProt P27038 20-135, limits assumed); note: test concentration or dose not given here
# Sequence (P27038 20-135 limits assumed): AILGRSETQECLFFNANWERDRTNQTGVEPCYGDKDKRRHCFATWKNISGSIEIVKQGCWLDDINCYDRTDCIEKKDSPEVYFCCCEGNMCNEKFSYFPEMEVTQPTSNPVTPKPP
# Protocol description: ELISA
Reported endpoint: optical density (OD)
Answer in OD, number only, no unit symbol.

Solved entries (count: 4):
binder="368_H01 (antibody, V domains shown, VH/VL only) VH: EVQLLESGGGLVQPGGSLRLSCAASGFTFSSYSMNWVRQAPGKGLEWVAGINYNSGYKSYADSVKGRFTISRDNSKNTLYLQMNSLRAEDTAVYYCARSATWHDTHLDYWGQGTLVTVSS VL: DIQMTQSPSSLSASVGDRVTITCRASQSILSYLNWYQQKPGKAPKLLIYATTSLASGVPSRFSGSGSGTDFTLTISSLQPEDFATYYCQQSYDNPLTFGGGTKVEIK" unit_spec=OD value_reported=3.14
binder="373_C09 (antibody, V domains shown, VH/VL only) VH: EVQLLESGGGLVQPGGSLRLSCAASGFTFDSYSMNWVRQAPGKGLEWVAGINYNSGYKSYADSVKGRFTISRDNSKNTLYLQMNSLRAEDTAVYYCARSATWHDTHLDYWGQGTLVTVSS VL: DIQMTQSPSSLSASVGDRVTITCRASQSILTYLNWYQQKPGKAPKLVIYAATSRASGVPSRFSGSGSGTDFTLTISSLQPEDFATYYCQQSYELPLTFGGGTKVEIK" unit_spec=OD value_reported=3.6
binder="370_A09 (antibody, V domains shown, VH/VL only) VH: EVQLLESGGGLVQPGGSLRLSCAASGFTFSSYSMNWVRQAPGKGLEWVAGINYNGGYTGYADSVKGRFTISRDNSKNTLYLQMNSLRAEDTAVYYCARSATWHDTHLDYWGQGTLVTVSS VL: DIQMTQSPSSLSASVGDRVTITCRASQSILTYLNWYQQKPGKAPKLVIYAATSRASGVPSRFSGSGSGTDFTLTISSLQPEDFATYYCQQSYDTPLTFGGGTKVEIK" unit_spec=OD value_reported=3.27
binder="365_D05 (antibody, V domains shown, VH/VL only) VH: EVQLLESGGGLVQPGGSLRLSCAASGFTFDSYSMNWVRQAPGKGLEWVAGINYNGGYTSYADSVKGRFTISRDNSKNTLYLQMNSLRAEDTAVYYCARSATWHDTHLDYWGQGTLVTVSS VL: DIQMTQSPSSLSASVGDRVTITCRASQSILTYVNWYQQKPGKAPKLLIYAATSRASGVPSRFSGSGSGTDFTLTISSLQPEDFATYYCQQSYNSPLTFGGGTKVEIK" unit_spec=OD value_reported=2.72

q: Could you share which optical density value was measured for 373_H10 (antibody, V domains shown, VH/VL only) VH: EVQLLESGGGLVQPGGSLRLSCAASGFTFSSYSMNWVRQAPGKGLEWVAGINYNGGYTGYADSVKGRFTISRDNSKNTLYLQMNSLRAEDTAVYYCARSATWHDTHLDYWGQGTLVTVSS VL: DIQMTQSPSSLSASVGDRVTITCRASQSILSYVNWYQQKPGKAPKLLIYAATSRASGVPSRFSGSGSGTDFTLTISSLQPEDFATYYCQQSYSLPLTFGGGTKVEIK ?
a: 3.25
